- Assay info: in vitro
- Study conditions: rat, gh3-tre-luc cells, AC50 (uM) modified / 1000
Property label: CC50 at 24 h

# count of solved cases: 4
Compound | Property label | Result
CCN(CC)CC1CCCCN1CC(=O)N1c2ccccc2C(=O)Nc2cccnc21 (centres unmarked) | CC50 at 24 h | > 50 µM
CSc1ccc(/C=C2/C(C)=C(CC(=O)O)c3cc(F)ccc32)cc1 [Sulindac sulfide] | CC50 at 24 h | > 50 µM
CC(C)C1CCC(Cc2ccc(Cl)cc2)C1(O)Cn1cncn1 (centres unmarked) | CC50 at 24 h | 41.7 µM
CC(C)c1ccc2sc3ccccc3c(=O)c2c1 | CC50 at 24 h | > 90 µM

Entry CC(C)CCCCCCOC(=O)c1ccc(C(=O)OCCCCCCC(C)C)c(C(=O)OCCCCCCC(C)C)c1 [Triisononyl trimellitate] : reported CC50 at 24 h = ? > 90 µM

Here is the next compound: `OCc1c2ccccc2cc2ccccc12` > 90 µM

Here is the next compound: `c1ccc(Nc2ccc(Nc3ccccc3)cc2)cc1` 33.3 µM

---

- Assay info: in vitro
- Study conditions: rat, gh3-tre-luc cells, AC50 (uM) modified / 1000, Tox21_110001=Tox21_202470; viability, 1 nM T3 present, 24 h
Property label: CC50 at 24 h

Entry Clc1cc(Cl)c(-c2cc(Cl)c(Cl)cc2Cl)cc1Cl [2,2',4,4',5,5'-Hexachlorobiphenyl] : reported CC50 at 24 h = ? > 40 µM

---

Listed here are compounds together with their documented GH3-TRE-Ag-Followup hitc.
- Test system: thyroid hormone receptor (endogenous TRα and TRβ)
- Assay info: GH3-TRE-Ag-Followup confirmation (TOX21_TR_LUC_GH3_Agonist_Followup, aeid 2226)
- Assay type: cell-based, rat
- Study conditions: hit call from tcpl
Just the number, please, no unit after it.

Compound | Recorded number
c1csc(-c2ccc(-c3cccs3)s2)c1 | 0
CC(C)(c1ccccc1)c1ccc(O)c(C(C)(C)c2ccccc2)c1 | 1
N[C@@H](Cc1cc(I)c(Oc2ccc(O)c(I)c2)c(I)c1)C(=O)O [3,5,3ʹ-Triiodothyronine, reference compound] | 1
Cc1cc(NC(=O)C(=O)O)cc(C)c1Oc1ccc(O)c2c1CCC2 [CP-634384, reference compound] | 1

For thyroid hormone receptor (endogenous TRα and TRβ), provide GH3-TRE-Ag-Followup hitc of `CC1(C)COP(Oc2ccccc2)OC1` please. 1

---

- Assay info: in vitro
- Study conditions: rat, gh3-tre-luc cells, AC50 (uM) modified / 1000
Structures can show the parent of a compound that is named as a salt.
Listed here are compounds together with their documented CC50 at 24 h.

Entry O=C1c2ccccc2Cc2ccccc21 [Anthrone] : reported CC50 at 24 h = ? 13.5 µM

Here is the next compound: N=C(N)c1ccc(OCCCOc2ccc(C(=N)N)cc2Br)c(Br)c1 [Dibromopropamidine dihydrochloride] 38.5 µM

Here is the next compound: O=C1NC2CCCCN2C12CCN(CCCN1c3ccccc3CCc3ccc(Cl)cc31)CC2 (stereo not drawn) [Mosapramine] 5.62 µM

Here is the next compound: CC(=O)Nc1ccc(S(=O)(=O)Cl)cc1 [4-(Acetylamino)benzenesulfonyl chloride] > 90 µM

Here is the next compound: CCOC(=O)O[C@]1(C(=O)OCCl)CC[C@H]2[C@@H]3CCC4=CC(=O)C=C[C@]4(C)[C@H]3[C@@H](O)C[C@@]21C [Loteprednol etabonate] > 50 µM

Here is the next compound: C[C@H](CCC(=O)O)[C@H]1CC[C@H]2[C@@H]3[C@H](O)C[C@@H]4C[C@H](O)CC[C@]4(C)[C@H]3C[C@H](O)[C@]12C [Cholic acid piperazine (1:1)] > 50 µM
